protocol.description: Phase I DDI study: pevonedistat plasma PK alone and with fluconazole
Assay type: in vivo, human
settings: human, plasma, iv, 8 mg
outcome.measure: AUC(0-inf)
Could you give the number and then its unit, please?

Item NS(=O)(=O)OC[C@@H]1C[C@@H](n2ccc3c(N[C@H]4CCc5ccccc54)ncnc32)C[C@@H]1O [Pevonedistat] has what recorded AUC(0-inf)? 450 ng·h/mL

###

protocol.description: Phase I DDI study: pevonedistat plasma PK alone and with itraconazole
Assay type: in vivo, human
settings: human, plasma, iv, 15 mg, t 1/2, mean (standard deviation), 15 mg m^−2 IV single dose, – itraconazole (day 1), n=6
outcome.measure: half-life (h)
Record the value in h, omitting the unit from your answer.

Item NS(=O)(=O)OC[C@@H]1C[C@@H](n2ccc3c(N[C@H]4CCc5ccccc54)ncnc32)C[C@@H]1O [Pevonedistat] has what recorded half-life? 9.8

###

protocol.description: Phase I DDI study: pevonedistat plasma PK alone and with itraconazole
Type: in vivo, human
settings: human, plasma, iv, t 1/2, mean (standard deviation), 8 mg m^−2 IV single dose, + itraconazole (day 8), n=13
outcome.measure: half-life
Could you give the number and then its unit, please?

Item NS(=O)(=O)OC[C@@H]1C[C@@H](n2ccc3c(N[C@H]4CCc5ccccc54)ncnc32)C[C@@H]1O [Pevonedistat] has what recorded half-life? 13.5 h

###

protocol.description: Phase I DDI study: pevonedistat plasma PK alone and with itraconazole
Format: in vivo, human
settings: human, plasma, iv, 20 mg, t 1/2, mean (standard deviation), 20 mg m^−2 IV single dose, – itraconazole (day 1), n=14
outcome.measure: half-life (h)
Record the value in h, omitting the unit from your answer.

Item NS(=O)(=O)OC[C@@H]1C[C@@H](n2ccc3c(N[C@H]4CCc5ccccc54)ncnc32)C[C@@H]1O [Pevonedistat] has what recorded half-life? 10

###

protocol.description: Phase I DDI study: pevonedistat plasma PK alone and with itraconazole
Assay type: in vivo, human
settings: human, plasma, intravenous, 20 mg, AUC∞, geometric LS mean reference condition (day 1), Pevonedistat 20 mg m^−2 alone, itraconazole cohort, n = 14
outcome.measure: AUC(0-inf) (ng·h/mL)
Record the value in ng·h/mL, omitting the unit from your answer.

Item NS(=O)(=O)OC[C@@H]1C[C@@H](n2ccc3c(N[C@H]4CCc5ccccc54)ncnc32)C[C@@H]1O [Pevonedistat] has what recorded AUC(0-inf)? 1120

###

protocol.description: Phase I DDI study: pevonedistat plasma PK alone and with itraconazole
Assay type: in vivo, human
settings: human, plasma, iv, 15 mg, AUC∞, geometric mean (% CV), 15 mg m^−2 IV single dose, – itraconazole (day 1), n=6
outcome.measure: AUC(0-inf) (ng·h/mL)
Record the value in ng·h/mL, omitting the unit from your answer.

Item NS(=O)(=O)OC[C@@H]1C[C@@H](n2ccc3c(N[C@H]4CCc5ccccc54)ncnc32)C[C@@H]1O has what recorded AUC(0-inf)? 798

###

protocol.description: Phase I DDI study: pevonedistat plasma PK alone and with fluconazole
Format: in vivo, human
settings: human, plasma, intravenous, 8 mg
outcome.measure: AUC(0-inf) (ng·h/mL)
Record the value in ng·h/mL, omitting the unit from your answer.

Item NS(=O)(=O)OC[C@@H]1C[C@@H](n2ccc3c(N[C@H]4CCc5ccccc54)ncnc32)C[C@@H]1O has what recorded AUC(0-inf)? 450

###

protocol.description: Phase I DDI study: pevonedistat plasma PK alone and with itraconazole
Format: in vivo, human
settings: human, plasma, intravenous, AUC∞, geometric LS mean test condition (day 8), Pevonedistat 15 mg m^−2 + itraconazole, n = 6
outcome.measure: AUC(0-inf) (ng·h/mL)
Record the value in ng·h/mL, omitting the unit from your answer.

Item NS(=O)(=O)OC[C@@H]1C[C@@H](n2ccc3c(N[C@H]4CCc5ccccc54)ncnc32)C[C@@H]1O has what recorded AUC(0-inf)? 1060

###

protocol.description: Phase I DDI study: pevonedistat plasma PK alone and with itraconazole
Assay type: in vivo, human
settings: human, plasma, intravenous, 15 mg, AUC∞, geometric LS mean reference condition (day 1), Pevonedistat 15 mg m^−2 alone, itraconazole cohort, n = 6
outcome.measure: AUC(0-inf) (ng·h/mL)
Record the value in ng·h/mL, omitting the unit from your answer.

Item NS(=O)(=O)OC[C@@H]1C[C@@H](n2ccc3c(N[C@H]4CCc5ccccc54)ncnc32)C[C@@H]1O has what recorded AUC(0-inf)? 798

###

protocol.description: Phase I DDI study: pevonedistat plasma PK alone and with itraconazole
Type: in vivo, human
settings: human, plasma, intravenous, C max, geometric LS mean test condition (day 8), Pevonedistat 15 mg m^−2 + itraconazole, n = 6
outcome.measure: Cmax (ng/mL)
Record the value in ng/mL, omitting the unit from your answer.

Item NS(=O)(=O)OC[C@@H]1C[C@@H](n2ccc3c(N[C@H]4CCc5ccccc54)ncnc32)C[C@@H]1O [Pevonedistat] has what recorded Cmax? 193

###

protocol.description: Phase I DDI study: pevonedistat plasma PK alone and with itraconazole
Type: in vivo, human
settings: human, plasma, intravenous, 8 mg, AUClast, geometric LS mean reference condition (day 1), Pevonedistat 8 mg m^−2 alone, itraconazole cohort, n = 13
outcome.measure: AUC(0-t) (ng·h/mL)
Record the value in ng·h/mL, omitting the unit from your answer.

Item NS(=O)(=O)OC[C@@H]1C[C@@H](n2ccc3c(N[C@H]4CCc5ccccc54)ncnc32)C[C@@H]1O has what recorded AUC(0-t)? 459

###

protocol.description: Phase I DDI study: pevonedistat plasma PK alone and with itraconazole
Assay type: in vivo, human
settings: human, plasma, intravenous, AUClast, geometric LS mean test condition (day 8), Pevonedistat 8 mg m^−2 + itraconazole, n = 13, value from n − 1 patients
outcome.measure: AUC(0-t)
Could you give the number and then its unit, please?

Item NS(=O)(=O)OC[C@@H]1C[C@@H](n2ccc3c(N[C@H]4CCc5ccccc54)ncnc32)C[C@@H]1O has what recorded AUC(0-t)? 558 ng·h/mL

###

protocol.description: Phase I DDI study: pevonedistat plasma PK alone and with itraconazole
Type: in vivo, human
settings: human, plasma, intravenous, C max, geometric LS mean test condition (day 8), Pevonedistat 8 mg m^−2 + itraconazole, n = 13
outcome.measure: Cmax (ng/mL)
Record the value in ng/mL, omitting the unit from your answer.

Item NS(=O)(=O)OC[C@@H]1C[C@@H](n2ccc3c(N[C@H]4CCc5ccccc54)ncnc32)C[C@@H]1O has what recorded Cmax? 66.8

###

protocol.description: Phase I DDI study: pevonedistat plasma PK alone and with itraconazole
Format: in vivo, human
settings: human, plasma, intravenous, C max, geometric LS mean test condition (day 8), Pevonedistat 20 mg m^−2 + itraconazole, n = 14
outcome.measure: Cmax (ng/mL)
Record the value in ng/mL, omitting the unit from your answer.

Item NS(=O)(=O)OC[C@@H]1C[C@@H](n2ccc3c(N[C@H]4CCc5ccccc54)ncnc32)C[C@@H]1O has what recorded Cmax? 137

###

protocol.description: Phase I DDI study: pevonedistat plasma PK alone and with fluconazole
Type: in vivo, human
settings: human, plasma, iv, 8 mg
outcome.measure: Cmax (ng/mL)
Record the value in ng/mL, omitting the unit from your answer.

Item NS(=O)(=O)OC[C@@H]1C[C@@H](n2ccc3c(N[C@H]4CCc5ccccc54)ncnc32)C[C@@H]1O [Pevonedistat] has what recorded Cmax? 51.6

###

protocol.description: Phase I DDI study: pevonedistat plasma PK alone and with itraconazole
Format: in vivo, human
settings: human, plasma, iv, 8 mg, t 1/2, mean (standard deviation), 8 mg m^−2 IV single dose, – itraconazole (day 1), n=13
outcome.measure: half-life (h)
Record the value in h, omitting the unit from your answer.

Item NS(=O)(=O)OC[C@@H]1C[C@@H](n2ccc3c(N[C@H]4CCc5ccccc54)ncnc32)C[C@@H]1O [Pevonedistat] has what recorded half-life? 10.8

###

protocol.description: Phase I DDI study: pevonedistat plasma PK alone and with itraconazole
Assay type: in vivo, human
settings: human, plasma, intravenous, 8 mg, AUC∞, geometric LS mean reference condition (day 1), Pevonedistat 8 mg m^−2 alone, itraconazole cohort, n = 13
outcome.measure: AUC(0-inf)
Could you give the number and then its unit, please?

Item NS(=O)(=O)OC[C@@H]1C[C@@H](n2ccc3c(N[C@H]4CCc5ccccc54)ncnc32)C[C@@H]1O has what recorded AUC(0-inf)? 465 ng·h/mL

###

protocol.description: Phase I DDI study: pevonedistat plasma PK alone and with itraconazole
Type: in vivo, human
settings: human, plasma, iv, 20 mg, AUC∞, geometric mean (% CV), 20 mg m^−2 IV single dose, – itraconazole (day 1), n=14
outcome.measure: AUC(0-inf) (ng·h/mL)
Record the value in ng·h/mL, omitting the unit from your answer.

Item NS(=O)(=O)OC[C@@H]1C[C@@H](n2ccc3c(N[C@H]4CCc5ccccc54)ncnc32)C[C@@H]1O has what recorded AUC(0-inf)? 1120

###

protocol.description: Phase I DDI study: pevonedistat plasma PK alone and with itraconazole
Type: in vivo, human
settings: human, plasma, intravenous, AUC∞, geometric LS mean test condition (day 8), Pevonedistat 8 mg m^−2 + itraconazole, n = 13, value from n − 1 patients
outcome.measure: AUC(0-inf) (ng·h/mL)
Record the value in ng·h/mL, omitting the unit from your answer.

Item NS(=O)(=O)OC[C@@H]1C[C@@H](n2ccc3c(N[C@H]4CCc5ccccc54)ncnc32)C[C@@H]1O [Pevonedistat] has what recorded AUC(0-inf)? 572
